# experimental_details: Genotoxicity against Salmonella typhimurium by Ames test
# Assay type: toxicity
# cond: salmonella enterica subsp. enterica serovar typhimurium

structure_smiles | Activity
O=C(Nc1ccc(F)c(-c2cn3nc(N4CCOCC4)cnc3n2)c1)N1CCCC1 | Toxic
O=C(Nc1cccc(-c2nc3ccccc3o2)c1)c1ccco1 | Toxic
O=C(Nc1ccc(F)c(-c2cn3cc(N4CCOCC4)cnc3n2)c1)N1CCCC1 | Toxic

----------
# experimental_details: Metabolic stability of the compound in human plasma assessed as parent compound remaining measured after 3 hrs
# Type: ADME, cell-free
# cond: read-out: Stability
property_name: remaining at 3 h (%)
Please respond with the number in % and leave the unit unwritten.

Input line: # return recorded remaining at 3 h for entry "O=C(Nc1ccc(F)c(-c2cn3cc(N4CCOCC4)cnc3n2)c1)N1CCCC1"
Output line: 100

----------
# experimental_details: Kinetic aqueous solubility of the compound by CLND method
# Format: physicochemical
# cond: buffer; read-out: Kinetic_solubility
property_name: solubility kinetic (µM)
Quick reminder: number only, in µM, skip the unit.

Input line: Output solubility kinetic of "C[C@@H]1CN(c2cnc3nc(-c4cc(NC(=O)N5CCCC5)ccc4F)ccn23)CCO1"
Output line: 345

----------
# experimental_details: Solubility of the compound in FaSSIF at pH 6.5 measured after 4 hrs by HPLC-UV analysis
# Format: physicochemical
# cond: FaSSIF, pH 6.5
property_name: solubility at 4 h (µM)
// units = µM; emit number, no label

structure_smiles | units_label | solubility at 4 h
O=C(Nc1ccc(F)c(-c2cn3nc(N4CCOCC4)cnc3n2)c1)N1CCCC1 | µM | 32

Input line: Kindly indicate its recorded solubility at 4 h. Item: "C[C@H]1CN(c2cnc3nc(-c4cc(NC(=O)N5CCCC5)ccc4F)ccn23)CCO1"
Output line: 1320

Input line: State its solubility at 4 h: "O=C(Nc1ccc(F)c(-c2cn3cc(N4CCOCC4)cnc3n2)c1)N1CCCC1"
Output line: 15

Input line: Entry "C[C@@H]1CN(c2cnc3nc(-c4cc(NC(=O)N5CCCC5)ccc4F)ccn23)CCO1" needs its solubility at 4 h filled in; supply it.
Output line: 1580

Input line: Specify measured solubility at 4 h for "O=C(Nc1ccc(F)c(-c2cnn3c(-c4ccccc4)cnc3n2)c1)N1CCCC1" .
Output line: 3

Input line: For the compound "O=C(Nc1ccc(F)c(-c2nc3cc(N4CCOCC4)cnn3n2)c1)N1CCCC1" , give its reported solubility at 4 h.
Output line: 182

Input line: Using the record for "O=C(Nc1ccc(F)c(-c2ccn3c(N4CCOCC4)cnc3n2)c1)N1CCCC1" , state its measured solubility at 4 h.
Output line: 440

----------
# experimental_details: Intrinsic clearance in mouse liver microsomes
# Type: ADME, Microsome
Define the label as Condition met when CLH is strictly less than 2 mL/min/g and as Condition not met in all remaining cases.

Input line: Input "O=C(Nc1cc(-c2cn3cc(N4CCOCC4)cnc3n2)ncn1)N1CCCC1" ; condition: CLH strictly below 2 mL/min/g. Does it hold?
Output line: Condition met

Input line: is_below(CLH, 2 mL/min/g) for "O=C(Nc1ccc(F)c(-c2nc3cc(N4CCOCC4)cnn3n2)c1)N1CCCC1" ?
Output line: Condition met

Input line: Field: below-cutoff. Rule: recorded CLH strictly less than 2 mL/min/g. Subject: "O=C(Nc1ccc(F)c(-c2cnn3c(-c4ccccc4)cnc3n2)c1)N1CCCC1"
Output line: Condition not met

Input line: Dear reviewer, please state whether "C[C@@H]1CN(c2cnc3nc(-c4cc(NC(=O)N5CCCC5)ccc4F)ccn23)CCO1" has CLH strictly beneath 2 mL/min/g.
Output line: Condition met

Input line: In the record for "C[C@H]1CN(c2cnc3nc(-c4cc(NC(=O)N5CCCC5)ccc4F)ccn23)CCO1" , is CLH less than 2 mL/min/g?
Output line: Condition not met

Input line: For this molecule, is CLH lower than 2 mL/min/g? "O=C(Nc1cccc(-c2nc3ncccc3o2)c1)c1ccco1"
Output line: Condition not met

Input line: Please check: CLH for "O=C(Nc1ccc(F)c(-c2cn3cc(N4CCOCC4)cnc3n2)c1)N1CCCC1" , strictly under 2 mL/min/g or not?
Output line: Condition met

Input line: CLH strictly < 2 mL/min/g for this molecule? "O=C(Nc1ccc(F)c(-c2nc3ncc(N4CCOCC4)cn3n2)c1)N1CCCC1"
Output line: Condition met

Input line: Strictly below 2 mL/min/g in CLH? "O=C(Nc1cccc(-c2cn3cc(N4CCOCC4)cnc3n2)n1)N1CCCC1"
Output line: Condition met

Input line: Consider the molecule "O=C(Nc1nccc(-c2cn3cc(N4CCOCC4)cnc3n2)n1)N1CCCC1" . Is its CLH strictly less than 2 mL/min/g?
Output line: Condition met

Input line: Does this molecule meet the criterion CLH < 2 mL/min/g? "O=C(Nc1ccc(F)c(-c2ccn3c(N4CCNCC4)cnc3n2)c1)N1CCCC1"
Output line: Condition met

Input line: Identify whether the molecule O=C(Nc1ccc(F)c(-c2ccn3c(N4CCOCC4)cnc3n2)c1)N1CCCC1 [GSK-3494245] records CLH below 2 mL/min/g.
Output line: Condition met

Input line: hey, is CLH for "O=C(Nc1cncc(-c2cn3cc(N4CCOCC4)cnc3n2)n1)N1CCCC1" lower than 2 mL/min/g or not?
Output line: Condition met

Input line: Does the reported CLH of "COc1ccc(NC(=O)N2CCCC2)cc1-c1cn2cc(N3CCOCC3)cnc2n1" stay below 2 mL/min/g?
Output line: Condition met

Input line: Here's an entry: "O=C(Nc1cnnc(-c2cn3cc(N4CCOCC4)cnc3n2)c1)N1CCCC1" . Is its CLH below 2 mL/min/g?
Output line: Condition met
